Quick reference for melting point among some compounds

# annotated cases, reported melting point shown
Compound	Assay Result
Nc1nc(N)nc(C2CCN(c3ccccc3)CC2)n1	202 to 204 °C
O=c1[nH]c(=O)c2nc3ccccc3nc2[nH]1	300 °C
Oc1ccc2c(c1)COc1c-2cc2ccc(O)cc2c1Cl	230 to 231 °C
Cc1cc(Cl)c2[nH]ncc2n1	218 °C
COc1ccc(C(=O)Nc2c(Cl)cncc2Cl)c2c1oc1ccc(C(F)(F)F)cc12	298 °C

Incoming: Given CS(=O)c1ccc(-c2coc3ccc(-c4nnc(SCc5cccc(C(F)(F)F)c5)o4)cc23)cc1 (stereo not given) , state its recorded melting point.
Outgoing: 176 to 177 °C

Incoming: Could you do the same for CCOC(=O)Cc1c(C)n(Cc2ccccc2)c2cccc(OCc3coc(-c4ccccc4)n3)c12 , please?
Outgoing: 103 to 105 °C
